Read-out: Matrix Metallopeptidase 1 (MMP1), MMP1 (gene 4312)
Test: BSK_MyoF_MMP1: BioMAP Diversity Plus: MyoF Assay for Matrix Metallopeptidase 1 (MMP1) Biomarker Activity (AID 2284268)
Conditions: primary human lung fibroblasts
Activity calls are given as the source filed them. The calls were made as follows: active = hit-call score of the fitted dose curve at least 0.9, where 1 is the maximum; inactive = score below 0.9.
Respond only with the outcome that fits, drawn from active, inactive

Please review the following examples before continuing.
COP(=S)(OC)Oc1c(Cl)cc(C)cc1Cl :: inactive
O=C(O)C(F)(F)C(F)(F)C(F)(F)C(F)(F)C(F)(F)C(F)(F)F :: inactive
Oc1ccc(-c2ccccc2)cc1 :: inactive
CCNc1nc(NC(C)(C)C)nc(SC)n1 :: active
Oc1c(I)cc(I)cc1I :: active

Below: the item to evaluate.
Check the results log: what was the call for COP(=S)(OC)Oc1ccc(S(=O)(=O)N(C)C)cc1 ? inactive
